Known INHIBITION of a selection of compounds
test system: Plasmodium berghei; assay: Screen against P. berghei liver stage (PbLuc), transformed with Luciferase, at 2uM; format: functional, HepG2; settings: tested at 2 uM
The campaign covered roughly 68,000 compounds. About 2,700 (4%) showed an effect of 50% or more. This excerpt belongs to a sample that is enriched for strong results.
Give the number; % is assumed, so skip it.

Can you look up INHIBITION on Plasmodium berghei for `COc1cc(-c2n[nH]c(CC#N)n2)cc(OC)c1OC` ?
16.72

API: value(readout=INHIBITION, system=Plasmodium berghei) for record Cc1cccc(CNC(Cc2ccsc2)c2nc(C)c(C)s2)n1 (stereo unspecified)
8.75

So what INHIBITION did `CCOC(=O)N1CCN(c2nc(N)c3ccccc3n2)CC1` get with Plasmodium berghei?
-12.08

What value of INHIBITION on Plasmodium berghei does `COCCN1C[C@@H]2CCCO[C@@H]2[C@H](N(C)Cc2ccco2)C1` have?
45.82

Recorded INHIBITION for `CCc1c(C)nc2ccccc2c1N1CCC(C(=O)NC)CC1` with Plasmodium berghei, please?
5.28

What reported INHIBITION corresponds to `CCOC(=O)N1CCN(c2nc(NC3CC3)c3ccccc3n2)CC1` on Plasmodium berghei?
27.85

====

system: Plasmodium berghei; test: Screen against P. berghei liver stage (PbLuc), transformed with Luciferase, at 2uM; format: functional, HepG2; conditions: tested at 2 uM
Hit rate of the full screen: of about 68,000 compounds, about 2,700 (4%) showed an effect of 50% or more. For the sample, strong results were picked, then their nearest neighbours and some compounds at random.
assay metric: INHIBITION (%)
Respond with the bare value in %.

O=C(NC1CC1)[C@@H]1CCO[C@@H]2CCN(Cc3ccco3)C[C@H]21 ... 46.73
CN(CC(=O)NCc1cc2ccccc2o1)S(C)(=O)=O ... -3.17
O=C1CCCN1CCCC(=O)N1CCCC(Cc2cccnc2)C1 (stereo not drawn) ... -11.81
c1ccc(-c2nnc(N3CCCC4(CCOC4)C3)s2)cc1 (stereo not drawn) ... -21.39
COc1ccc2c(C)nc(N3CCN([C@H]4CCCC[C@@H]4O)CC3)nc2c1 ... -104.21

Param item = CCc1ccsc1C(=O)N1CCN(CC(O)CC)CC1 (stereo not drawn) ; retrieve measured INHIBITION.
56.67

Bench note: what INHIBITION did Cc1ccccc1OCC(=O)NCC(c1ccc(N(C)C)cc1)N(C)C (stereo not drawn) show?
36.6

Fill in the blank: the reported INHIBITION of `Cc1cc2c(=O)n(CCSc3cnn[nH]3)cnc2s1` is ____.
39.99

Reported INHIBITION, compound `CC(C)Cc1cc(NC(=O)c2ccccn2)n(C)n1` : ____
7.13

What value of INHIBITION has been reported for the following compound? Cn1nnnc1SC1CCCN(c2cccc(F)c2)C1=O (stereo not drawn)
14.65

Bench note: what INHIBITION did `CCSCc1cccc(NC(=O)N(C)Cc2ncnn2C)c1` show?
72.05

====

system: Plasmodium berghei; test: Screen against P. berghei liver stage (PbLuc), transformed with Luciferase, at 2uM; type: functional, HepG2; conditions: tested at 2 uM
Out of some 68,000 compounds screened, about 2,700 (4%) showed an effect of 50% or more. For the sample, strong results were picked, then their nearest neighbours and some compounds at random.
The entries below are paired with their reported INHIBITION.
Quick note: give the figure in %, leave out the unit.

O=C(c1ccccc1)N1C[C@H]2CC[C@@H](C1)N(S(=O)(=O)c1cccnc1)C2 ... -23.58
CC(C)NC(=O)CC1COC2(CCN(Cc3ccco3)CC2)C1 (configuration not stated) ... 43.58

Recorded INHIBITION of Cc1nc(CNCC2CN(C)CCO2)cs1 (configuration not stated) , please.
-50.23

Form field: reported INHIBITION of CCCC1COCCN1Cc1ccc(C(=O)O)cc1 (configuration not stated)
55.7

Given the entry O=C(CS(=O)(=O)c1ccc(Cl)cc1)NC1CCCc2ccccc21 (configuration not stated) , report its measured INHIBITION.
44.37

Fill in: INHIBITION of `O=C(Nc1ccc(F)cc1)N1CCN(Cc2noc(C3CC3)n2)CC1` is ___
24.65

What does the record list as INHIBITION for O[C@H]1CCN(CC2CCOC2)[C@H]1Cc1ccncc1 (some centres not stated) ?
3.56

# credit: ChEMBL document CHEMBL4513216
